assay: MTT assay, cytotoxicity; format: cell-based, human; conditions: human, HeLa cells, concentration not given
No end group written: not given here.
Measurement label: viability (%)
Report only the number, with the unit % understood.

                      substance  readout_number
0  FRLKFHLKF-NH2 [Seq Id No: 2]             100

Item VLKKLKKLC-NH2 [Seq Id No: 3] has what recorded viability?
88
